test system: Promyelocytic leukemia cell strain HL-60; assay: HL-60 cell differentiation induction (morphological change, NBT reduction), each compound alone and with coexisting retinoid Am80; type: cell-based; conditions: Table 4; compound fixed at 1×10^-6 M, alone
We begin with a simple list: items and their reported ratios of differentiated cells, Coexisting retinoid (concentration) None.
Please state the value as a number alone, without comment.

See these solved cases before continuing.
Molecule smiles: C=C(c1cccc(/C=C2\SC(=O)NC2=O)c1)c1ccc2c(c1)C(C)(C)CCC2(C)C
Value: 4.2
--
Molecule smiles: CC1(C)CCC(C)(C)c2cc(C(=O)c3cccc(/C=C4\SC(=O)NC4=O)c3)ccc21
Value: 4.4
--
Molecule smiles: C=C(c1cccc(/C=C2\SC(=O)NC2=O)c1)c1cc2c(cc1C)C(C)(C)CCC2(C)C
Value: 7

Now let's try a different one.
Specify measured ratios of differentiated cells, Coexisting retinoid (concentration) None for `Cc1cc2c(cc1C(=O)c1cccc(/C=C3\SC(=O)NC3=O)c1)C(C)(C)CCC2(C)C` .
5.3

* * *

test system: Promyelocytic leukemia cell strain HL-60; experiment: HL-60 cell differentiation induction (morphological change, NBT reduction), each compound alone and with coexisting retinoid Am80; assay type: cell-based; details: Table 3; compound concentration -8, with 3×10^-9 M Am80
Measured attribute: Ratio of differentiation-induced cells with coexistence of 3×10^-9 Am80
Please state the value as a number alone, without comment.

Compound: C=C(c1ccc(/C=C2\SC(=O)NC2=O)cc1)c1ccc2c(c1)C(C)(C)CCC2(C)C [TZ241]
Value: 76
--
Compound: C=C(c1ccc(/C=C2\SC(=O)NC2=O)cc1)c1cc2c(cc1C)C(C)(C)CCC2(C)C [TZ245]
Value: 86
--
Compound: CC1(C)CCC(C)(C)c2cc(Nc3ccc(/C=C4\SC(=O)NC4=O)cc3)ccc21 [TZ321]
Value: 55

Specify measured Ratio of differentiation-induced cells with coexistence of 3×10^-9 Am80 for CN(c1ccc(/C=C2\SC(=O)NC2=O)cc1)c1ccc2c(c1)C(C)(C)CCC2(C)C [TZ325] .
72

Specify measured Ratio of differentiation-induced cells with coexistence of 3×10^-9 Am80 for CC1(C)CCC(C)(C)c2cc(C(=O)c3ccc(/C=C4\SC(=O)NC4=O)cc3)ccc21 [TZ221] .
54

* * *

tested on: Promyelocytic leukemia cell strain HL-60; experiment: HL-60 cell differentiation induction (morphological change, NBT reduction), each compound alone and with coexisting retinoid Am80; type: cell-based; settings: Table 4; compound fixed at 1×10^-6 M with Am80 (-9.5)
Measured attribute: ratios of differentiated cells, Coexisting retinoid (concentration) Am80 (-9.5)
Please state the value as a number alone, without comment.

See these solved cases before continuing.
Molecule smiles: CC1(C)CCC(C)(C)c2cc(C(=O)c3cccc(/C=C4\SC(=O)NC4=O)c3)ccc21
Value: 22

Molecule smiles: Cc1cc2c(cc1C(=O)c1cccc(/C=C3\SC(=O)NC3=O)c1)C(C)(C)CCC2(C)C
Value: 5.5

Molecule smiles: C=C(c1cccc(/C=C2\SC(=O)NC2=O)c1)c1cc2c(cc1C)C(C)(C)CCC2(C)C
Value: 5.8

Now let's try a different one.
Specify measured ratios of differentiated cells, Coexisting retinoid (concentration) Am80 (-9.5) for `C=C(c1cccc(/C=C2\SC(=O)NC2=O)c1)c1ccc2c(c1)C(C)(C)CCC2(C)C` .
35

Values were extracted from patent EP1048659A1.
